These entries and their values trace back to patent US20070105771A1.

# target_entity: T1, human CD26-derived 13 mer peptide 23 (human)
# T1 peptide: NSTFDEFGHSIND
# procedure_text: peptide microarray
property_name: Mean Signal Value

INPUT: Form field: reported Mean Signal Value of rhuMAb 420 (antibody, human IgG1, V domains shown, X420 VH and X380 VL with human IgG1 and human kappa constant regions; also called X420 (IgG1)) VH: EVQLVESGGGVKQPGETLRLTCTASGFSLSTYGVHWVRQAPGKGLEWVGVIWGDGRTDYDAAFMSRVTISKDTSKSTVYLQMNSLRAEDTAVYYCMRNRHDWFDYWGQGTTVTVSS VL: EIEMTQSPSSLSVSAGERATISCSASQDIRNSLNWYQQKPGQAPRLLIYYSSNLHTGVPARFSGSGSGTDFTLTISRLEPEDVAIYYCQQSNKLPLTFGSGTKVEIKR
OUTPUT: 0
